B1: KLHL13 (parent)
chain: TGEFLKLPFERLAFVLSSNSLKHC

variants of: B1; assay: protein stability index of a GFP-peptide fusion (GPS, HEK-293T) (PSI 1-6); higher = more stable; settings: c terminus: a fixed tail appended;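 further: lentivirally expressed fusions sorted by FACS into six bins by GFP to DsRed ratio, PSI derived from sequencing read proportions per bin multiplied by bin number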
Can you tell me protein stability index for the items I'm about to list?
Form field (numeric): enter value without unit.

*Q* Consider the variant TGEFLDLPFERLAFVLSSNSLKHC [K6D] and give its measured protein stability index.
*A* 1.38

*Q* Endpoint output: protein stability index of RGEFLKLPFERLAFVLSSNSLKHC [T1R] . Value?
*A* 3.17

*Q* Given the variant TGEFLKLPFTRLAFVLSSNSLKHC [E10T] , what is its reported protein stability index?
*A* 2.76

*Q* Look up protein stability index for this variant: TGGFLKLPFERLAFVLSSNSLKHC [E3G]
*A* 4.77

*Q* Query: protein stability index; subject: TGEFLKLPFERLAFVLSSNSLKTC [H23T]
*A* 2.17

*Q* Consider the variant TGEFLKLPFERLAKVLSSNSLKHC [F14K] and give its measured protein stability index.
*A* 1.79

*Q* Fill in: protein stability index of TGEFLKLPFERLAFVLSSVSLKHC [N19V] is ___
*A* 2.24

*Q* Would you kindly share the measured protein stability index for TGEFLKLPFERLAFVLSSNSHKHC [L21H] ?
*A* 2.14
